target: epithelial sodium channel (ENaC) (Homo sapiens, UniProt P37088+P51168+P51170); assay: Short circuit current (ISC) measurements in human bronchial epithelial cells, inhibition of amiloride-sensitive ISC; settings: inhibition of the amiloride-sensitive ISC, HBECs at air-liquid interface, compound added to apical chamber
Sequence (P37088 whole entry): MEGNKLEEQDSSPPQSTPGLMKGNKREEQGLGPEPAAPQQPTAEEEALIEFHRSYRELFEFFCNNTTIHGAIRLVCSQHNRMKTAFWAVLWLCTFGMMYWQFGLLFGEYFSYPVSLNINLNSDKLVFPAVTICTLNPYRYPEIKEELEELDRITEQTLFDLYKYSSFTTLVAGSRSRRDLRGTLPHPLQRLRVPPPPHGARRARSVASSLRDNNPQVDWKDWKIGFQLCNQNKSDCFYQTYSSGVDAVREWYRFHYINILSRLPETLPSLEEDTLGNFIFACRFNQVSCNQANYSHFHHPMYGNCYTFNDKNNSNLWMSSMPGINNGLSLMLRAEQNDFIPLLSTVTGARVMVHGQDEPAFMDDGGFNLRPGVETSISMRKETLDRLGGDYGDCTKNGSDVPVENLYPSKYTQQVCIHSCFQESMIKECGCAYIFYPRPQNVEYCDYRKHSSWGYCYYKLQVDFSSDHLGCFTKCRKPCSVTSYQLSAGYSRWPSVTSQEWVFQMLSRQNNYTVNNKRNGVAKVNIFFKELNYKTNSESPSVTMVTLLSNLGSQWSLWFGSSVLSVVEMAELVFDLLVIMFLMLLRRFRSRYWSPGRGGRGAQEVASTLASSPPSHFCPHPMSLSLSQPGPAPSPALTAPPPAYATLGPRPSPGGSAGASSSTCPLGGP
Sequence (P51168 whole entry): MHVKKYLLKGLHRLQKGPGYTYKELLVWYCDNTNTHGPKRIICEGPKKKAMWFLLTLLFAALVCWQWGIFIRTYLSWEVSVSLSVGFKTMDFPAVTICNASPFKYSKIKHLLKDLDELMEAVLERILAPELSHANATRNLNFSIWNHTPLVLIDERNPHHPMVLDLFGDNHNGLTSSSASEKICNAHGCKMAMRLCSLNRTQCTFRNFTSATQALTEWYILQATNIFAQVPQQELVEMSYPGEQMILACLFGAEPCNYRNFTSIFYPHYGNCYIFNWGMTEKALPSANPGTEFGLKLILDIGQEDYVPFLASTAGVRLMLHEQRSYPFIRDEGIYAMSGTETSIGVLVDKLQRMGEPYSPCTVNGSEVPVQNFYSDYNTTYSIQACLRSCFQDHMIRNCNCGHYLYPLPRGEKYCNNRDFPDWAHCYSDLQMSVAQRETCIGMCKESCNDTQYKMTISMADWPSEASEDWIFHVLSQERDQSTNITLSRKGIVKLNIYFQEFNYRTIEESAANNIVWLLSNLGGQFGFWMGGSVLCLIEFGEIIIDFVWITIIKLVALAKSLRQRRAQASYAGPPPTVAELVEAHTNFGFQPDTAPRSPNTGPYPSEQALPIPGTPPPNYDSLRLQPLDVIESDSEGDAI
Sequence (P51170 whole entry): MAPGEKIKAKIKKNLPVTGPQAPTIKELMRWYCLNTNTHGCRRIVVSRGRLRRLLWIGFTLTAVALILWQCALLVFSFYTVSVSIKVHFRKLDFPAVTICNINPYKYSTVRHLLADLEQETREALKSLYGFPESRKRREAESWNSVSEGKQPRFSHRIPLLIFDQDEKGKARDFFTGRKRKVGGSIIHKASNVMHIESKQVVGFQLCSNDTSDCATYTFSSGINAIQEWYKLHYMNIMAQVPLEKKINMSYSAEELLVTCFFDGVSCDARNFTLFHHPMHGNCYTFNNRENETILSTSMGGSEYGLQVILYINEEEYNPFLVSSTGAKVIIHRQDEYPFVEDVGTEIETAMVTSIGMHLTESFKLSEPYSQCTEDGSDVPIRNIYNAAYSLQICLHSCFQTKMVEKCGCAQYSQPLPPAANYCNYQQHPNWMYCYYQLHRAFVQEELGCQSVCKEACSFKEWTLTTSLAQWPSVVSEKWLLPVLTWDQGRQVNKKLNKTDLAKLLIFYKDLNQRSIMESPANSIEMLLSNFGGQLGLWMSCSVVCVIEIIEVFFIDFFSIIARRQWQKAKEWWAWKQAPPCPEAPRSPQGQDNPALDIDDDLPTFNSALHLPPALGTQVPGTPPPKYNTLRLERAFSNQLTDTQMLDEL
Structures can show the parent of a compound that is named as a salt.
IC50 for assorted compounds
Numbers only; they are read as nM.

Cc1oc(-c2ccccc2)nc1COc1ccc(S(=O)(=O)N2CCC3(CC2)CN/C(=N\C(=O)c2nc(Cl)c(N)nc2N)N3)cc1 ... 11.9

Now, please, on to the next compound.
Please give the measured IC50 for this compound: CCCC1N/C(=N/C(=O)c2nc(Cl)c(N)nc2N)NC1CCCc1ccc(OCC(O)CO)cc1 (stereo in doubt) [Example 29, hydrochloride] 5

----------
target: ΔF508-CFTR (Homo sapiens, UniProt P13569, DEL508-508); assay: Membrane potential optical (FRET/VIPR) assay, identification of potentiator compounds, NIH3T3 cells expressing ΔF508-CFTR; conditions: Table II.A-4; EC50 of certain embodiments
Sequence (P13569 with tags, fused parts or gaps DEL508-508): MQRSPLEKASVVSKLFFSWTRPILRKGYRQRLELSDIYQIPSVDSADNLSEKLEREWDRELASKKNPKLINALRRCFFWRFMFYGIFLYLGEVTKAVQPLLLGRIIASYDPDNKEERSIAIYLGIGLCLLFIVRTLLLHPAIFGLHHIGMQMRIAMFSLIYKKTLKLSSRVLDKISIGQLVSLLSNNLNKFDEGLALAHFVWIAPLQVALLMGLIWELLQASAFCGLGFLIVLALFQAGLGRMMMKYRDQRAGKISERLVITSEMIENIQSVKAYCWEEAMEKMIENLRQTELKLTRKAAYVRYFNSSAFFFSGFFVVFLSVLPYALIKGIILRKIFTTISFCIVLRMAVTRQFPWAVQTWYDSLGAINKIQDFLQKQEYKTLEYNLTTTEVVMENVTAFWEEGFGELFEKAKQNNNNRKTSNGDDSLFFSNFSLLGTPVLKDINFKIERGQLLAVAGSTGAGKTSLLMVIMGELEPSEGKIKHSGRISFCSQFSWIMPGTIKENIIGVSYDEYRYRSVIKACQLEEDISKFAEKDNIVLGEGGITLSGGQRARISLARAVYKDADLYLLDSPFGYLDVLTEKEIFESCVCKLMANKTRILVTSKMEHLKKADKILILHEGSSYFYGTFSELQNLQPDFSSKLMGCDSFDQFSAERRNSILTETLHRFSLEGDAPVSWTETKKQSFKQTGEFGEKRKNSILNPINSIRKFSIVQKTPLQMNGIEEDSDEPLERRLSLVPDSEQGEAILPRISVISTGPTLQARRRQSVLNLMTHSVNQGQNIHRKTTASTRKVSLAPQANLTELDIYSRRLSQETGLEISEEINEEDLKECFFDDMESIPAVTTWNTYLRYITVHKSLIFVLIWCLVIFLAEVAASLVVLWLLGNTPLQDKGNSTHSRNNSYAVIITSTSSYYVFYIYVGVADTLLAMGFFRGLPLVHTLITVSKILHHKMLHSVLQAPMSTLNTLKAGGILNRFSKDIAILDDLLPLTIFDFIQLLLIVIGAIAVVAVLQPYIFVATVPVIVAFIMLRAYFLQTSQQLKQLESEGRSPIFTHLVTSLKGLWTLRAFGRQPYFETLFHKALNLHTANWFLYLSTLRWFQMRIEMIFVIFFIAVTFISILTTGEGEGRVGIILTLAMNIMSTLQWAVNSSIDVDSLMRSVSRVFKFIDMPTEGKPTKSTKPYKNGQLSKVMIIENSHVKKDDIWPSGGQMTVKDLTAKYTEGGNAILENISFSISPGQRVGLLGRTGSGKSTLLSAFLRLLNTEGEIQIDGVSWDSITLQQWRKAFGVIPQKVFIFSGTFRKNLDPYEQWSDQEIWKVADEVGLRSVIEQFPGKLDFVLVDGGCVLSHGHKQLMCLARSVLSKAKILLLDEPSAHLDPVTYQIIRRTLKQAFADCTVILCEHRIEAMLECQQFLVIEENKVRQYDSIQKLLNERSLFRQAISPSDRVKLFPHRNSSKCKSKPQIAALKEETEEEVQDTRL
Assay Metric: EC50

Nc1cccc(NC(=O)c2c[nH]c3ccccc3c2=O)c1 [compound 431] ... < 10 µM

Item under review: O=C(Nc1ccc(N2CCOCC2)cc1)c1c[nH]c2ccccc2c1=O [compound 457] . Reported EC50? < 10 µM

Same for O=C(Nc1ccccc1Oc1ccccc1)c1c[nH]c2ccccc2c1=O [compound 413] 10 to 25 µM

Next: CC(C)(C)OC(=O)NCC(C)(C)c1ccc(NC(=O)c2c[nH]c3ccccc3c2=O)cc1 [compound 88] < 10 µM
